- assayed-system: HDAC6 (Homo sapiens)
- Sequence (Q9UBN7 whole entry): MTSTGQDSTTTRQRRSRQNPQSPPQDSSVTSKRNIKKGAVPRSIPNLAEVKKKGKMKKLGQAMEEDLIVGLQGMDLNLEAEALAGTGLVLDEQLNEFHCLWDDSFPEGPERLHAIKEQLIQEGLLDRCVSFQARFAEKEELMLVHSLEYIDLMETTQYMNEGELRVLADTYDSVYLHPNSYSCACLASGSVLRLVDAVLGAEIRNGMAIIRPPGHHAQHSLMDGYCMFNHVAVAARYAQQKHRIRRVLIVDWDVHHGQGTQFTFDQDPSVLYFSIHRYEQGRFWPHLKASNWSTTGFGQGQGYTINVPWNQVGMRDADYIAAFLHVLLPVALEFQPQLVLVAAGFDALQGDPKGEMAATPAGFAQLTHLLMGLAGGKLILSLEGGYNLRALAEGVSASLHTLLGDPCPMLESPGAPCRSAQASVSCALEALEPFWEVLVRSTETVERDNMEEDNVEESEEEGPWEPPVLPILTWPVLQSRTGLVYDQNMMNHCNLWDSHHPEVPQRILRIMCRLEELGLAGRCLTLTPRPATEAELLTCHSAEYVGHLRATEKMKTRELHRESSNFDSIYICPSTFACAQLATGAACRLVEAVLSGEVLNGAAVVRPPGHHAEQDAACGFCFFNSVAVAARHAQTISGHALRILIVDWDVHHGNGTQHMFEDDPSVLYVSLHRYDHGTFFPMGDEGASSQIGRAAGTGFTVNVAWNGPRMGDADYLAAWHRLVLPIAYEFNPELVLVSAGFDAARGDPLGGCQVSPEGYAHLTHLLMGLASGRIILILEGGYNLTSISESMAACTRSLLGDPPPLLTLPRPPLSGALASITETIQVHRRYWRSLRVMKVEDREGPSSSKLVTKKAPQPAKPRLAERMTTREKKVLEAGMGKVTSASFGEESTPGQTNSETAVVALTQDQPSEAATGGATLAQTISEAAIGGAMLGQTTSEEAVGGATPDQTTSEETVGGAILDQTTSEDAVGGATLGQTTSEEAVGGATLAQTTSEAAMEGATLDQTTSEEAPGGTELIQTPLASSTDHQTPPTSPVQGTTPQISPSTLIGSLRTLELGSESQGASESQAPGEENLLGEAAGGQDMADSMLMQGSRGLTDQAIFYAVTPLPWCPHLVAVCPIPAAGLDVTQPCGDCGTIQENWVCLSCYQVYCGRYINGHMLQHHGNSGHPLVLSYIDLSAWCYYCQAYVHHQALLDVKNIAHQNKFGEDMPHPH
- assay-name: Inhibition of recombinant HDAC6
- assay-context: read-out: IC50 (nM) HCAC6; recombinant HDAC6
endpoint-label: IC50 (nM)
One number for each entry, in nM.

Ask: Quick check: IC50 of O=C(NO)c1ccc(CN(CCO)C(=O)Cc2ccccc2)cc1 ?
Result: 31
